- Test system: MRC-5 cells
- assayInfo: Cytotoxicity, MTT test
- reportedConditions: 72 h, 100 to 3.12 μg/mL

- smilesStr: "c1ccc2sc(SSc3nc4ccccc4s3)nc2c1"
  cellular toxicity (cell viability): "minimal toxicity"
- smilesStr: "O=c1sc2ccccc2n1Cc1ccccc1"
  cellular toxicity (cell viability): "minimal toxicity"
- smilesStr: "Nc1nnc(Sc2ncc([N+](=O)[O-])s2)s1"
  cellular toxicity (cell viability): "toxic"

* * *

- testedSystem: SARS-CoV-2 M^pro (Severe acute respiratory syndrome coronavirus 2)
- Construct: in vitro FRET-based assay using recombinant M^pro; purchased Beyotime P0315M
- assayInfo: biochemical
- reportedConditions: Figure 2(l), With Triton-X100; read-out: IC50
quantityKind: IC50

- smilesStr: "[O-][n+]1ccccc1SSc1cccc[n+]1[O-]"
  testedSystem: "SARS-CoV-2 M^pro (Severe acute respiratory syndrome coronavirus 2)"
  quantityKind: "IC50"
  reportedResult: "0.266 µM"
- smilesStr: "c1ccc2sc(SSc3nc4ccccc4s3)nc2c1"
  testedSystem: "SARS-CoV-2 M^pro (Severe acute respiratory syndrome coronavirus 2)"
  quantityKind: "IC50"
  reportedResult: "0.622 µM"

* * *

- testedSystem: SARS-CoV-2 M^pro (Severe acute respiratory syndrome coronavirus 2, UniProt P0DTD1)
- Construct: in vitro FRET-based assay using recombinant M^pro; purchased Beyotime P0315M
- assayInfo: biochemical
- reportedConditions: Figure 2 panels a-k, dose-response curve, mean ± SEM, n = 3; read-out: IC50
pIC50: −log10 of the molar value.
quantityKind: pIC50

- smilesStr: "c1ccc2sc(SSc3nc4ccccc4s3)nc2c1"
  quantityKind: "pIC50"
  reportedResult: 6.15
- smilesStr: "[O-][n+]1ccccc1SSc1cccc[n+]1[O-]"
  quantityKind: "pIC50"
  reportedResult: 6.76
- smilesStr: "Cc1ccc(-n2c(/C=C/c3ccc([N+](=O)[O-])cc3)nc3ccccc3c2=O)cc1"
  quantityKind: "pIC50"
  reportedResult: 4.42

* * *

Each entry below lists one item and its recorded pIC50 value.
- testedSystem: SARS-CoV-2 M^pro (Severe acute respiratory syndrome coronavirus 2, UniProt P0DTD1)
- Construct: in vitro FRET-based assay using recombinant M^pro; purchased Beyotime P0315M
- assayInfo: biochemical
- reportedConditions: IC50, Figure 2(l), Trial 2
pIC50: −log10 of the molar value.
quantityKind: pIC50

- smilesStr: "Nc1nnc(Sc2ncc([N+](=O)[O-])s2)s1"
  quantityKind: "pIC50"
  reportedResult: 6.38
- smilesStr: "O=c1sc2ccccc2n1Cc1ccccc1"
  quantityKind: "pIC50"
  reportedResult: 6.75

* * *

- testedSystem: SARS-CoV-2 M^pro (Severe acute respiratory syndrome coronavirus 2)
- Construct: in vitro FRET-based assay using recombinant M^pro; purchased Beyotime P0315M
- assayInfo: biochemical
- reportedConditions: IC50, Figure 2(l), Trial 1
pIC50: −log10 of the molar value.
Known pIC50 of a selection of compounds
quantityKind: pIC50

- smilesStr: "Nc1nnc(Sc2ncc([N+](=O)[O-])s2)s1"
  reportedResult: 6.38
- smilesStr: "O=c1sc2ccccc2n1Cc1ccccc1"
  reportedResult: 6.76

* * *

- testedSystem: SARS-CoV-2 M^pro (Severe acute respiratory syndrome coronavirus 2, UniProt P0DTD1)
- Construct: in vitro FRET-based assay using recombinant M^pro; purchased Beyotime P0315M
- assayInfo: biochemical
- reportedConditions: Figure 2(l), Trial 2; read-out: IC50

- smilesStr: "[O-][n+]1ccccc1SSc1cccc[n+]1[O-]"
  IC50 / µM: 0.171
- smilesStr: "c1ccc2sc(SSc3nc4ccccc4s3)nc2c1"
  IC50 / µM: 0.768

* * *

- testedSystem: SARS-CoV-2 M^pro (Severe acute respiratory syndrome coronavirus 2)
- Construct: in vitro FRET-based assay using recombinant M^pro; purchased Beyotime P0315M
- assayInfo: biochemical
- reportedConditions: IC50, Figure 2 panels a-k, dose-response curve, mean ± SEM, n = 3
pIC50: −log10 of the molar value.
# pIC50 listing for each entry below

- compound: "c1ccc(Sc2ncnc3c2oc2ccccc23)cc1 [Compound 6]"
  pIC50: 5.30
- compound: "Nc1nnc(Sc2ncc([N+](=O)[O-])s2)s1 [Compound 9, halicin]"
  pIC50: 6.38
- compound: "O=C1C2C3C=CC(C3)C2C(=O)C2C3C=CC(C3)C12 (stereo not shown) [Compound 5]"
  pIC50: 5.01
- compound: "Nc1nnc(Sc2ccc([N+](=O)[O-])cn2)s1 [Compound 4]"
  pIC50: 5.21

* * *

- testedSystem: SARS-CoV-2 M^pro (Severe acute respiratory syndrome coronavirus 2)
- Construct: in vitro FRET-based assay using recombinant M^pro; purchased Beyotime P0315M
- assayInfo: biochemical
- reportedConditions: read-out: IC50

- smilesStr: "[O-][n+]1ccccc1SSc1cccc[n+]1[O-]"
  unitOfMeasure: "µM"
  IC50: 0.18
- smilesStr: "c1ccc2sc(SSc3nc4ccccc4s3)nc2c1"
  unitOfMeasure: "µM"
  IC50: 0.71

* * *

- testedSystem: SARS-CoV-2 M^pro (Severe acute respiratory syndrome coronavirus 2)
- Construct: in vitro FRET-based assay using recombinant M^pro; purchased Beyotime P0315M
- assayInfo: biochemical
- reportedConditions: Figure 2(l), Trial 1; read-out: IC50
IC50 by entry:
quantityKind: IC50

- compound: "[O-][n+]1ccccc1SSc1cccc[n+]1[O-] [Compound 8, dipyrithione]"
  quantityKind: "IC50"
  reportedResult: "172 nM"
- compound: "c1ccc2sc(SSc3nc4ccccc4s3)nc2c1 [Compound 1]"
  quantityKind: "IC50"
  reportedResult: "714 nM"

* * *

- testedSystem: SARS-CoV-2 M^pro (Severe acute respiratory syndrome coronavirus 2, UniProt P0DTD1)
- Construct: in vitro FRET-based assay using recombinant M^pro; purchased Beyotime P0315M
- assayInfo: biochemical
- reportedConditions: IC50
pIC50: −log10 of the molar value.

- compound: "Nc1nnc(Sc2ncc([N+](=O)[O-])s2)s1 [Compound 9, halicin]"
  pIC50: 6.38
